Listing: PBM binding z-score of selected sequences
- Test system: PPARg homodimer (NR concentration 180 nM)
- TEST: PBM binding z-score (relative to random genomic background probes); higher = stronger binding; sequences stand for … in GC…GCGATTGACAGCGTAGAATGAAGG
Form rule: numeric answer, no unit written next to it.

In the examples that follow, each entry is paired with its recorded PBM binding z-score.
Query: GET /values?readout=PBM binding z-score&item= CTCGAAAGGTCGGTTGAGGTGTGTATACGGATAA
Reply: 0.679

Query: GET /values?readout=PBM binding z-score&item= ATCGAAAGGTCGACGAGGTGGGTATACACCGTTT
Reply: 1.34

Query: GET /values?readout=PBM binding z-score&item= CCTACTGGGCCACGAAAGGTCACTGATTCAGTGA
Reply: 1.93

Query: GET /values?readout=PBM binding z-score&item= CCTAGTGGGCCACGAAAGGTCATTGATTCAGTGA
Reply: 2.95

Query: GET /values?readout=PBM binding z-score&item= CGAACGAGGGCATGAGTTGATAGCAAATGCCGAT
Reply: -0.0859

Query: GET /values?readout=PBM binding z-score&item= CTACCAAGGTGAACAAGGTCGGTGATTACTATTC
Reply: 0.38

Further cases:
Query: GET /values?readout=PBM binding z-score&item= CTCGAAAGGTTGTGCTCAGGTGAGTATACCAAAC
Reply: 0.203

Query: GET /values?readout=PBM binding z-score&item= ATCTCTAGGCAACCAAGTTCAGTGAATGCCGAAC
Reply: -0.0686

Query: GET /values?readout=PBM binding z-score&item= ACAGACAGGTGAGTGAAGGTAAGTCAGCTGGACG
Reply: -0.0235

Query: GET /values?readout=PBM binding z-score&item= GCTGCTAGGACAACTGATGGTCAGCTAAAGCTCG
Reply: -1.24

Query: GET /values?readout=PBM binding z-score&item= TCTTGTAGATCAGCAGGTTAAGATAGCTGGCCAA
Reply: 0.155

* * *

- Test system: VDR homodimer (NR concentration 270 nM)
- TEST: PBM binding z-score (relative to random genomic background probes); higher = stronger binding; sequences stand for … in GC…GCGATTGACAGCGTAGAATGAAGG
Listing: PBM binding z-score of selected sequences
Form rule: numeric answer, no unit written next to it.

In the examples that follow, each entry is paired with its recorded PBM binding z-score.
Query: GET /values?readout=PBM binding z-score&item= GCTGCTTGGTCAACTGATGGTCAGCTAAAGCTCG
Reply: -1.25

Query: GET /values?readout=PBM binding z-score&item= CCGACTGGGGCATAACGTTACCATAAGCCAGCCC
Reply: -0.0002

Query: GET /values?readout=PBM binding z-score&item= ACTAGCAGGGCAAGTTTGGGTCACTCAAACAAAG
Reply: 0.258

Further cases:
Query: GET /values?readout=PBM binding z-score&item= CCTATTAATTGACCATAAGGGCAACCGAAGCTCG
Reply: 1.85

Query: GET /values?readout=PBM binding z-score&item= ATATGTAGGTTACATCCGGGTCATTGAGGCTATG
Reply: 2.7

Query: GET /values?readout=PBM binding z-score&item= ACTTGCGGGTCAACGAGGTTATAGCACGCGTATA
Reply: 3.69

Query: GET /values?readout=PBM binding z-score&item= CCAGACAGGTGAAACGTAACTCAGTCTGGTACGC
Reply: -0.448

Query: GET /values?readout=PBM binding z-score&item= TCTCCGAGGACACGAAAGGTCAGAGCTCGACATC
Reply: 1.31

* * *

- Tested on: RXRa DBDmut IVT, anti-RXR (DBD mutation: RXRa K156A/R161A, NR concentration 90 nM)
- TEST: PBM binding z-score (relative to random genomic background probes); higher = stronger binding; sequences stand for … in GC…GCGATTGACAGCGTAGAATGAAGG
Listing: PBM binding z-score of selected sequences
Form rule: numeric answer, no unit written next to it.

In the examples that follow, each entry is paired with its recorded PBM binding z-score.
Query: GET /values?readout=PBM binding z-score&item= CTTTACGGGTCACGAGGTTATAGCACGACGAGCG
Reply: 2.53

Query: GET /values?readout=PBM binding z-score&item= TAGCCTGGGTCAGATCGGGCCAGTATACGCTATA
Reply: -1.34

Query: GET /values?readout=PBM binding z-score&item= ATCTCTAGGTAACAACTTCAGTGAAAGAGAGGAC
Reply: -0.232

Query: GET /values?readout=PBM binding z-score&item= GCAGATAGGTGAAACGCAGGTAACTCAGGGTGGC
Reply: -0.635

Moving on to another sequence below.
Query: GET /values?readout=PBM binding z-score&item= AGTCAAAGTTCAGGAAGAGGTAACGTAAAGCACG
Reply: 2.79

* * *

- Test system: LXRa homodimer (NR concentration 270 nM)
- TEST: PBM binding z-score (relative to random genomic background probes); higher = stronger binding; sequences stand for … in GC…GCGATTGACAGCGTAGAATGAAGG
Response field class: enum, chosen by comparing PBM binding z-score against bucket A: < -0.4; bucket B: ≥ -0.4 and < 0.4; bucket C: ≥ 0.4

Query: Which bin, given its PBM binding z-score, does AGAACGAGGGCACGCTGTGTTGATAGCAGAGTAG occupy?
Reply: bucket A

Query: Which bin, given its PBM binding z-score, does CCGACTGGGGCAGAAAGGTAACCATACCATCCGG occupy?
Reply: bucket A

Query: Which bin, given its PBM binding z-score, does TCTTGTAGATCAGCAGGTTAAGAGAGCTGGCCAA occupy?
Reply: bucket A

Query: Which bin, given its PBM binding z-score, does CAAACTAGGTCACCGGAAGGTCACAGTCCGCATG occupy?
Reply: bucket C

Query: Which bin, given its PBM binding z-score, does GCAGACAGGTGAAACGCAGGTAACTGAGGGTGGC occupy?
Reply: bucket A

Query: Which bin, given its PBM binding z-score, does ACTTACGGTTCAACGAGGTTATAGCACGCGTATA occupy?
Reply: bucket C

Query: Which bin, given its PBM binding z-score, does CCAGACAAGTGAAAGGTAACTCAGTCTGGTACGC occupy?
Reply: bucket B

Query: Which bin, given its PBM binding z-score, does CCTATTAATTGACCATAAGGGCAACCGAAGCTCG occupy?
Reply: bucket C

Query: Which bin, given its PBM binding z-score, does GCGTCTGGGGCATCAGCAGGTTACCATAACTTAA occupy?
Reply: bucket A

Query: Which bin, given its PBM binding z-score, does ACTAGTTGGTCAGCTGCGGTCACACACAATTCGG occupy?
Reply: bucket C

Further cases:
Query: Which bin, given its PBM binding z-score, does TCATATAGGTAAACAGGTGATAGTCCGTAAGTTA occupy?
Reply: bucket B

Query: Which bin, given its PBM binding z-score, does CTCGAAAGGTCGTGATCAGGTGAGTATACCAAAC occupy?
Reply: bucket B

Query: Which bin, given its PBM binding z-score, does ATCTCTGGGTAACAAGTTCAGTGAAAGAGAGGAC occupy?
Reply: bucket B

Query: Which bin, given its PBM binding z-score, does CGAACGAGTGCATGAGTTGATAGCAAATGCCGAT occupy?
Reply: bucket B

Query: Which bin, given its PBM binding z-score, does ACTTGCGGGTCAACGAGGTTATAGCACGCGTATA occupy?
Reply: bucket C

Query: Which bin, given its PBM binding z-score, does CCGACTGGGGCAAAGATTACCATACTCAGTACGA occupy?
Reply: bucket A

Query: Which bin, given its PBM binding z-score, does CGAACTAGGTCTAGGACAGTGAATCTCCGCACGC occupy?
Reply: bucket A

Query: Which bin, given its PBM binding z-score, does CCGACTGGGGCAAAGGTTACAATACTCAGTACGA occupy?
Reply: bucket B

* * *

Listing: PBM binding z-score of selected sequences
- Tested on: LXRb homodimer (NR concentration 270 nM)
- TEST: PBM binding z-score (relative to random genomic background probes); higher = stronger binding; sequences stand for … in GC…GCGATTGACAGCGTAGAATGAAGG
Form rule: numeric answer, no unit written next to it.

In the examples that follow, each entry is paired with its recorded PBM binding z-score.
Query: Query for LXRb homodimer (NR concentration 270 nM): what PBM binding z-score does the record show for AGTAAAAGTTCATCTAGGTAACGTAAGATATGCT ?
Reply: 1.71

Query: Query for LXRb homodimer (NR concentration 270 nM): what PBM binding z-score does the record show for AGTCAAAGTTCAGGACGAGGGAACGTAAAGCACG ?
Reply: 0.379

Query: Query for LXRb homodimer (NR concentration 270 nM): what PBM binding z-score does the record show for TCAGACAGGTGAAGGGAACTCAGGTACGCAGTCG ?
Reply: 0.193

Query: Query for LXRb homodimer (NR concentration 270 nM): what PBM binding z-score does the record show for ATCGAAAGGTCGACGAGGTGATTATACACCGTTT ?
Reply: 0.337

Query: Query for LXRb homodimer (NR concentration 270 nM): what PBM binding z-score does the record show for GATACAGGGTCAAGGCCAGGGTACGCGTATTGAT ?
Reply: -0.397

Further cases:
Query: Query for LXRb homodimer (NR concentration 270 nM): what PBM binding z-score does the record show for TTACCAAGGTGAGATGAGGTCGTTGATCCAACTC ?
Reply: -0.44

Query: Query for LXRb homodimer (NR concentration 270 nM): what PBM binding z-score does the record show for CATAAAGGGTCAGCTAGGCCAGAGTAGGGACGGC ?
Reply: 0.607

Query: Query for LXRb homodimer (NR concentration 270 nM): what PBM binding z-score does the record show for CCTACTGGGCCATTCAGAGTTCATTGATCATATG ?
Reply: -0.389

Query: Query for LXRb homodimer (NR concentration 270 nM): what PBM binding z-score does the record show for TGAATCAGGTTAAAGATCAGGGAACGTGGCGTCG ?
Reply: -0.0822

Query: Query for LXRb homodimer (NR concentration 270 nM): what PBM binding z-score does the record show for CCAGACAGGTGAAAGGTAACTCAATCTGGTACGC ?
Reply: -0.161

Query: Query for LXRb homodimer (NR concentration 270 nM): what PBM binding z-score does the record show for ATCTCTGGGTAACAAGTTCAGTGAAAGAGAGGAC ?
Reply: 0.98

Query: Query for LXRb homodimer (NR concentration 270 nM): what PBM binding z-score does the record show for ATCTCTAGGTATAGATAGTTCAGTGAATGCAAAT ?
Reply: 0.404

Query: Query for LXRb homodimer (NR concentration 270 nM): what PBM binding z-score does the record show for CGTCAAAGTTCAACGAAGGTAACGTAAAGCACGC ?
Reply: 1.02

Query: Query for LXRb homodimer (NR concentration 270 nM): what PBM binding z-score does the record show for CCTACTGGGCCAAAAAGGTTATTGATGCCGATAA ?
Reply: -0.751

Query: Query for LXRb homodimer (NR concentration 270 nM): what PBM binding z-score does the record show for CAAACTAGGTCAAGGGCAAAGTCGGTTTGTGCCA ?
Reply: 0.2

Query: Query for LXRb homodimer (NR concentration 270 nM): what PBM binding z-score does the record show for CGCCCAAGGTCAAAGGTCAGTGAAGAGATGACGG ?
Reply: 1.72

Query: Query for LXRb homodimer (NR concentration 270 nM): what PBM binding z-score does the record show for TCTAGTTGGTTAAAGGTCACACACTCGAAATGCG ?
Reply: 2.22

Query: Query for LXRb homodimer (NR concentration 270 nM): what PBM binding z-score does the record show for TCGAGTAGGTTAGGGGCATTCATAATGGCGTCGA ?
Reply: -0.211
